# target: UniProt:P11229
# Sequence (P11229 whole entry): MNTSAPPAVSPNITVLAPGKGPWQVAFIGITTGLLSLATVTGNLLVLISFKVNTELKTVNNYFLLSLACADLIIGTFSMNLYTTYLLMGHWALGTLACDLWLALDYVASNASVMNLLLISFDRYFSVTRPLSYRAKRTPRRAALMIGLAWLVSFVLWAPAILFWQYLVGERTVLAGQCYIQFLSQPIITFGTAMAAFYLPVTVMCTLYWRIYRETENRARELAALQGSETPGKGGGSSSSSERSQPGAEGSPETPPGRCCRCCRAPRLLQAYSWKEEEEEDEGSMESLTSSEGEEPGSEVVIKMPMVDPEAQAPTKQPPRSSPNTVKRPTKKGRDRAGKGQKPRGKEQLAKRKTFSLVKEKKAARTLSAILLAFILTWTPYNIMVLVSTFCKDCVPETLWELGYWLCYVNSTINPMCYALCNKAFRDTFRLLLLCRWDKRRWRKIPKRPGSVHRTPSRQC
Please use MET for Ki under 0.4 µM and NOT MET for everything else, ties included.

State whether 0.4 µM exceeds Ki recorded for CN1[C@@H]2CC[C@H]1C[C@@H](NC(c1ccc(F)cc1)c1ccc(F)cc1)C2 .
MET

State whether 0.4 µM exceeds Ki recorded for C=CCN1[C@@H]2CC[C@H]1C[C@@H](NC(c1ccc(F)cc1)c1ccc(F)cc1)C2 .
MET

State whether 0.4 µM exceeds Ki recorded for CN1[C@@H]2CC[C@H]1C[C@H](NC(c1ccc(F)cc1)c1ccc(F)cc1)C2 .
MET

State whether 0.4 µM exceeds Ki recorded for NCCN1[C@@H]2CC[C@H]1C[C@@H](NC(c1ccc(F)cc1)c1ccc(F)cc1)C2 .
NOT MET

State whether 0.4 µM exceeds Ki recorded for Fc1ccc(C(N[C@H]2C[C@H]3CC[C@@H](C2)N3CCCCc2ccccc2)c2ccc(F)cc2)cc1 .
NOT MET

State whether 0.4 µM exceeds Ki recorded for CN1[C@@H]2CC[C@H]1C[C@@H](NC(c1ccccc1)c1ccc(Cl)cc1)C2 (some centres undefined) .
MET

State whether 0.4 µM exceeds Ki recorded for Fc1ccc(C(N[C@H]2C[C@H]3CC[C@@H](C2)N3CCc2c[nH]c3ccccc23)c2ccc(F)cc2)cc1 .
NOT MET

State whether 0.4 µM exceeds Ki recorded for CN(C(c1ccc(F)cc1)c1ccc(F)cc1)[C@H]1C[C@H]2CC[C@@H](C1)N2C .
MET

State whether 0.4 µM exceeds Ki recorded for CN1C2CCC1CC(OC(c1ccc(F)cc1)c1ccc(F)cc1)C2 (centres undefined) .
MET

State whether 0.4 µM exceeds Ki recorded for O=C(CCN1[C@@H]2CC[C@H]1C[C@@H](NC(c1ccc(F)cc1)c1ccc(F)cc1)C2)Nc1ccccc1 .
NOT MET

State whether 0.4 µM exceeds Ki recorded for CN1[C@@H]2CC[C@H]1C[C@@H](NC(c1ccc(Cl)c(Cl)c1)c1ccc(Cl)c(Cl)c1)C2 .
MET

State whether 0.4 µM exceeds Ki recorded for CCCCN1[C@@H]2CC[C@H]1C[C@@H](NC(c1ccc(F)cc1)c1ccc(F)cc1)C2 .
NOT MET

State whether 0.4 µM exceeds Ki recorded for CN1[C@@H]2CC[C@H]1C[C@@H](NC(c1ccc(Cl)cc1)c1ccc(Cl)cc1)C2 .
MET

State whether 0.4 µM exceeds Ki recorded for Fc1ccc(C(N[C@H]2C[C@H]3CC[C@@H](C2)N3)c2ccc(F)cc2)cc1 .
MET

* * *

# assay.procedure: Selectivity of NET over DAT
Please use satisfied for Ratio Ki under 100 and not satisfied for everything else, ties included.

State whether 100 exceeds Ratio Ki recorded for CCCCN1[C@@H]2CC[C@H]1C[C@@H](NC(c1ccc(F)cc1)c1ccc(F)cc1)C2 .
not satisfied

State whether 100 exceeds Ratio Ki recorded for Fc1ccc(C(N[C@H]2C[C@H]3CC[C@@H](C2)N3)c2ccc(F)cc2)cc1 .
not satisfied

State whether 100 exceeds Ratio Ki recorded for CN(C(c1ccc(F)cc1)c1ccc(F)cc1)[C@H]1C[C@H]2CC[C@@H](C1)N2C .
satisfied

State whether 100 exceeds Ratio Ki recorded for CN1[C@@H]2CC[C@H]1C[C@@H](NC(c1ccc(F)cc1)c1ccc(F)cc1)C2 .
not satisfied

State whether 100 exceeds Ratio Ki recorded for CN1[C@@H]2CC[C@H]1C[C@@H](NC(c1ccccc1)c1ccc(Cl)cc1)C2 (stereo not given in full) .
satisfied

State whether 100 exceeds Ratio Ki recorded for C=CCN1[C@@H]2CC[C@H]1C[C@@H](NC(c1ccc(F)cc1)c1ccc(F)cc1)C2 .
not satisfied

State whether 100 exceeds Ratio Ki recorded for O=C(CCN1[C@@H]2CC[C@H]1C[C@@H](NC(c1ccc(F)cc1)c1ccc(F)cc1)C2)Nc1ccccc1 .
not satisfied

State whether 100 exceeds Ratio Ki recorded for CN1[C@@H]2CC[C@H]1C[C@H](NC(c1ccc(F)cc1)c1ccc(F)cc1)C2 .
not satisfied

State whether 100 exceeds Ratio Ki recorded for Fc1ccc(C(N[C@H]2C[C@H]3CC[C@@H](C2)N3CCCCc2ccccc2)c2ccc(F)cc2)cc1 .
not satisfied

State whether 100 exceeds Ratio Ki recorded for CN1[C@@H]2CC[C@H]1C[C@@H](NC(c1ccc(Cl)c(Cl)c1)c1ccc(Cl)c(Cl)c1)C2 .
satisfied

* * *

# target: Sodium-dependent serotonin transporter (Homo sapiens)
# Sequence (P31645 whole entry): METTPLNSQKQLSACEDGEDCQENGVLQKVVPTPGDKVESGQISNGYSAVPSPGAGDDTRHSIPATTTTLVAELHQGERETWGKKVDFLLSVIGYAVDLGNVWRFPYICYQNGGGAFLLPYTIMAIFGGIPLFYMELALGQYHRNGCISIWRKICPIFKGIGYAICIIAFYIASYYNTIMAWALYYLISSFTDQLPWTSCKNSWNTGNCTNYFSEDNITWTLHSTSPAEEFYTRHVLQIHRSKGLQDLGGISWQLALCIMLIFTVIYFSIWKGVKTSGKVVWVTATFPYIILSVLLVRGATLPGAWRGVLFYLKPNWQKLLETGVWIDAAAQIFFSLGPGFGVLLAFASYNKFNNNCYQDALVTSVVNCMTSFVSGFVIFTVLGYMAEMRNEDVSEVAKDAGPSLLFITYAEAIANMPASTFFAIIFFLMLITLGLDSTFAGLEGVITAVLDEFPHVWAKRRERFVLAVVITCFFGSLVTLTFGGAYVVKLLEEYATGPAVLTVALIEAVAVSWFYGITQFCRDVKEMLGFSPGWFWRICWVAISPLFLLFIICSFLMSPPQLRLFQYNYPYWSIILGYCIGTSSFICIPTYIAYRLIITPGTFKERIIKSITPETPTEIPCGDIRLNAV
Please use class 1 for Ki under 4 µM and class 0 for everything else, ties included.

State whether 4 µM exceeds Ki recorded for NCCN1[C@@H]2CC[C@H]1C[C@@H](NC(c1ccc(F)cc1)c1ccc(F)cc1)C2 .
class 0

State whether 4 µM exceeds Ki recorded for CN1[C@@H]2CC[C@H]1C[C@H](NC(c1ccc(F)cc1)c1ccc(F)cc1)C2 .
class 0

State whether 4 µM exceeds Ki recorded for CN(C(c1ccc(F)cc1)c1ccc(F)cc1)[C@H]1C[C@H]2CC[C@@H](C1)N2C .
class 0

State whether 4 µM exceeds Ki recorded for CN1C2CCC1CC(OC(c1ccc(F)cc1)c1ccc(F)cc1)C2 (stereo not drawn) [DIFLUOROBENZTROPINE] .
class 1

State whether 4 µM exceeds Ki recorded for CN1[C@@H]2CC[C@H]1C[C@@H](NC(c1ccccc1)c1ccc(Cl)cc1)C2 (stereo partly drawn) .
class 0

State whether 4 µM exceeds Ki recorded for Fc1ccc(C(N[C@H]2C[C@H]3CC[C@@H](C2)N3CCc2c[nH]c3ccccc23)c2ccc(F)cc2)cc1 .
class 1

State whether 4 µM exceeds Ki recorded for Fc1ccc(C(N[C@H]2C[C@H]3CC[C@@H](C2)N3)c2ccc(F)cc2)cc1 .
class 0

State whether 4 µM exceeds Ki recorded for CN1[C@@H]2CC[C@H]1C[C@@H](NC(c1ccc(Cl)c(Cl)c1)c1ccc(Cl)c(Cl)c1)C2 .
class 1

* * *

Reported Ki for target or system Sodium-dependent dopamine transporter (Rattus norvegicus, UniProt P23977), by entry.
Just the number in nM, nothing appended.

Provide measured Ki value, entry: NCCN1[C@@H]2CC[C@H]1C[C@@H](OC(c1ccc(F)cc1)c1ccc(F)cc1)C2
5.59

Provide measured Ki value, entry: Fc1ccc(C(O[C@H]2C[C@H]3CC[C@@H](C2)N3CCc2c[nH]c3ccccc23)c2ccc(F)cc2)cc1
29.2

Provide measured Ki value, entry: O=C(CCN1[C@@H]2CC[C@H]1C[C@@H](OC(c1ccc(F)cc1)c1ccc(F)cc1)C2)Nc1ccccc1
6.22

* * *

I'd appreciate it if you could supply pKi values for the items below.
# target: UniProt P31645
# assay.procedure: Displacement of [3H]citalopram from SERT
Please express pKi as -log10 of the molar concentration.

Provide measured pKi value, entry: Fc1ccc(C(N[C@H]2C[C@H]3CC[C@@H](C2)N3CCCCc2ccccc2)c2ccc(F)cc2)cc1
6.30

Provide measured pKi value, entry: CCCCN1[C@@H]2CC[C@H]1C[C@@H](NC(c1ccc(F)cc1)c1ccc(F)cc1)C2
5.58

Provide measured pKi value, entry: CN1[C@@H]2CC[C@H]1C[C@@H](NC(c1ccc(F)cc1)c1ccc(F)cc1)C2
5.06

Provide measured pKi value, entry: C=CCN1[C@@H]2CC[C@H]1C[C@@H](NC(c1ccc(F)cc1)c1ccc(F)cc1)C2
5.41

Provide measured pKi value, entry: O=C(CCN1[C@@H]2CC[C@H]1C[C@@H](NC(c1ccc(F)cc1)c1ccc(F)cc1)C2)Nc1ccccc1
6.22

Provide measured pKi value, entry: CN1[C@@H]2CC[C@H]1C[C@@H](NC(c1ccc(Cl)cc1)c1ccc(Cl)cc1)C2
5.38
